Reference for the values: patent US20260250371A1

Entries and their Ratio (variant antibody KD/burosumab KD)
experimental.target: T1, recombinant human FGF23 (R179Q) (human, UniProt Q9GZV9 25-251)
T1 construct: also called rhFGF23(R179Q); hFGF23(R179Q)
T1 sequence (looked up): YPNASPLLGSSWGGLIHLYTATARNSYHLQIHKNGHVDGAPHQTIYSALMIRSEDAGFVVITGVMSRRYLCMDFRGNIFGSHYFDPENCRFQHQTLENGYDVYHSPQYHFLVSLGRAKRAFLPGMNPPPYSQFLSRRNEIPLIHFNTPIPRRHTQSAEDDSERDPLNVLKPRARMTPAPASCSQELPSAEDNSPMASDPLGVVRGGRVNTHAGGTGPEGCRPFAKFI
assay: SPR, antibody captured on hIgG chip, rhFGF23(R179Q) analyte
Form field (numeric): enter value without unit.

binder	experimental.result
UGX127 (antibody, human IgG1, kappa, V domains shown, also called UGX017; LC:S52E) VH: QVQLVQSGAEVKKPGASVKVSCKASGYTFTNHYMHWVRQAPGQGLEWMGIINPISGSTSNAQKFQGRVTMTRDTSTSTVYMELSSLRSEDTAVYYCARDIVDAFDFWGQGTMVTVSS VL: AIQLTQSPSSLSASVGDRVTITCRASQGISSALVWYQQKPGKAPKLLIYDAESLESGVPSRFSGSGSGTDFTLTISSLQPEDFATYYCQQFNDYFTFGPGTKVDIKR	1
UGX159 (antibody, human IgG1, kappa, V domains shown, also called HC:S59E) VH: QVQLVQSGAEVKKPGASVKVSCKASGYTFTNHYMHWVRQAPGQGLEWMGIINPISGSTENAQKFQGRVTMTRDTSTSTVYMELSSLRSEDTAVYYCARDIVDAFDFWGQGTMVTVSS VL: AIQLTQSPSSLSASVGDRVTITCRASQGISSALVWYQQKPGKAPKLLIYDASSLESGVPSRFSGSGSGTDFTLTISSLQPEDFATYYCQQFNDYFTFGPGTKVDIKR	1

Consider now this further binder.
If you can, please state the reported Ratio (variant antibody KD/burosumab KD) value of UGX166 (antibody, human IgG1, kappa, V domains shown, also called UGX068; HC:S59Y) VH: QVQLVQSGAEVKKPGASVKVSCKASGYTFTNHYMHWVRQAPGQGLEWMGIINPISGSTYNAQKFQGRVTMTRDTSTSTVYMELSSLRSEDTAVYYCARDIVDAFDFWGQGTMVTVSS VL: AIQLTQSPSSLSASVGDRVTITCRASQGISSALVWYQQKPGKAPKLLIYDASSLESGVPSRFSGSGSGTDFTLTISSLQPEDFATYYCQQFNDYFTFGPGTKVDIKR . 1
